Origin of values: patent US20100298141A1

Record form. Attribute: Plant response rating, Black Mustard. Fill in for each entry.
Test system: mustard
protocol_notes: Test F preemergence test
Format: in vivo, Brassica nigra
stated_conditions: Preemergence; 31 g ai/ha; scale 0 to 100
One number for each entry.

1. Cc1cc[n+]([O-])c(S(=O)(=O)C(Cl)c2c(C(F)(F)F)nn(C)c2OCC(F)(F)F)c1 (racemic) | 15
2. Cn1nc(C(F)(F)F)c(CS(=O)(=O)c2cccc[n+]2[O-])c1OCC(F)(F)F | 100
3. Cn1nc(OC(F)F)c(CS(=O)(=O)c2cccc[n+]2[O-])c1C(F)(F)F | 0
4. Cc1cc([S+]([O-])Cc2c(C(F)(F)F)nn(C)c2OCC(F)(F)F)[n+]([O-])cc1Cl (stereo not drawn) | 90
5. CCn1nc(C(F)(F)F)c(CS(=O)(=O)c2cc(C)cc[n+]2[O-])c1OCC(F)(F)F | 0

Quick batch: Plant response rating, Black Mustard for everything below.
1. Cn1nc(C(F)(F)C(F)(F)F)c(C[S+]([O-])c2cccc[n+]2[O-])c1OCC(F)(F)F (stereo not drawn)
2. Cn1nc(C(F)(F)F)c(C[S+]([O-])c2cccc[n+]2[O-])c1OCC(F)(F)F (racemic)
3. Cc1cc[n+]([O-])c([S+]([O-])Cc2c(C(F)(F)F)nn(C)c2Cl)c1 (racemic)
4. CC(Oc1c(C[S+]([O-])c2cccc[n+]2[O-])c(C(F)(F)F)nn1C)C(F)(F)F (stereo not drawn)

RESULT:
[100, 100, 60, 20]
